tested on: SK-OV-3 ovarian; test: NCI tumour cell line growth inhibition, 48 h
measurementName: TGI

Worked cases, answers included:
// returns reported TGI for input O=C1C=CC2(NN=C(c3ccccc3)N2c2ccccc2)c2cccc(O)c21 (stereo unspecified)
98 µM

Also, Cn1cc(-c2csc(-c3c[nH]c4ccccc34)n2)c2cccnc21 please.
23 µM

Also, COc1cc(C2c3cc4c(cc3[C@@H](Nc3ccc(F)cc3)C3CO[C@@H](O)[C@H]23)OCO4)cc(OC)c1O (stereo partly specified) please.
> 25 µM

Also, CCOC(=O)/C=C/C1OC(C)(C)OC1/C=C/C(=O)OCC (stereo unspecified) please.
> 100 µM

Also, CN(C)CCNc1ccc2nnn3c4ccc(O)cc4c(=O)c1c23 please.
29.7 µM

Next compound, please.
// returns reported TGI for input COc1ccc(CCc2nc3cc(-c4c(C)noc4C)ccc3n2CCN2CCOCC2)cc1
> 100 µM
